Target: human GPR43 (Homo sapiens)
Assay: Ca-Flux Functional Assay: Determination of Agonist/Positive Allosteric Modulator (PAM) Activity
Details: CHO-K1 Gα16 cells stably expressing human GPR43; compound added in the presence of EC20 sodium acetate; intracellular Ca2+ by FLIPR; agonist/PAM activity not distinguished
pEC50: −log10 of the molar value.
quantityName: pEC50

Worked cases, answers included:
querySmiles	measuredTarget	pEC50
COc1ccc(S(=O)(=O)c2c(N)n(C3CCC(F)(F)CC3)c3cccnc23)cc1	human GPR43 (Homo sapiens)	6.78
CCCN(C)S(=O)(=O)c1c(N)n(C2CCCCC2)c2nccnc12	human GPR43 (Homo sapiens)	5.85
Nc1c(S(=O)(=O)N2CCC(Cc3ccccc3)CC2)c2nccnc2n1C1CCCCC1	human GPR43 (Homo sapiens)	5.90
Nc1c(S(=O)(=O)c2ccccc2)c2ccnnc2n1C1CCCCC1	human GPR43 (Homo sapiens)	6.15

a: Nc1c(S(=O)(=O)NCCc2ccccc2)c2nccnc2n1C1CCCCC1
b: Nc1c(S(=O)(=O)c2ccc(OC(F)F)cc2)c2nccnc2n1C1CCCCC1
c: Nc1c(S(=O)(=O)c2ccccc2)c2nccnc2n1CC1CCCC1
d: Nc1c(S(=O)(=O)NCC2CCC2)c2nccnc2n1C1CCCCC1
Challenge: Arrange the 4 molecules by rising pEC50, starting with the smallest. Could you list the labels in the order requested?
Response given: a, c, d, b

* * *

Molecular target: human GPR43 (Homo sapiens, UniProt O15552)
Experiment: Ca-Flux Functional Assay: Determination of Agonist/Positive Allosteric Modulator (PAM) Activity
Conditions: CHO-K1 Gα16 cells stably expressing human GPR43; compound added in the presence of EC20 sodium acetate; intracellular Ca2+ by FLIPR; agonist/PAM activity not distinguished
Description: Ca-Flux Functional Assay: Determination of Agonist/Positive Allosteric Modulator (PAM) Activity GPR43 agonist/PAM activity was determined by measuring changes in intracellular calcium levels using a Ca^2+ sensitive fluorescent dye. The changes in fluorescent signal were monitored by FLIPR (manufactured by Molecular Devices). GPR43 mediated increases in intracellular Ca^2+ concentration were readily detected upon activation with sodium acetate. […]
quantityName: EC50 (µM)

querySmiles	val
Nc1c(S(=O)(=O)c2ccccc2)c2nccnc2n1C1CCCCC1	0.261

a: Nc1c(S(=O)(=O)N2CCc3ccccc3C2)c2nccnc2n1C1CCCCC1
b: N#Cc1ncnc2c(S(=O)(=O)c3ccccc3)c(N)n(C3CCCCC3)c12
c: CC(=O)N(C)C1CCN(S(=O)(=O)c2c(N)n(C3CCCCC3)c3nccnc23)CC1
Challenge: Task field, ranking: reported EC50, descending order. Could you list the labels in the order requested?
Response given: c, b, a

* * *

Biological target: human GPR43 (Homo sapiens, UniProt O15552)
Sequence (O15552 1-330): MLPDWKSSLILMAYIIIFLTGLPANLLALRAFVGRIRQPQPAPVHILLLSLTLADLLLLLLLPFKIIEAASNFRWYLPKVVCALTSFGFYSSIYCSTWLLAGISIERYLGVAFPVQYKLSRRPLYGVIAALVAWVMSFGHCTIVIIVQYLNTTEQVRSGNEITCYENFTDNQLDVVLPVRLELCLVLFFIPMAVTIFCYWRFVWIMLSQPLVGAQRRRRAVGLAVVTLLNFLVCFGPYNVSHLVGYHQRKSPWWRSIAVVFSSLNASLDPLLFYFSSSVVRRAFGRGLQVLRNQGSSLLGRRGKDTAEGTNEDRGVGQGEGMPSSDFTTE
Assay: Ca-Flux Functional Assay: Determination of Agonist/Positive Allosteric Modulator (PAM) Activity
Settings: CHO-K1 Gα16 cells stably expressing human GPR43; compound added in the presence of EC20 sodium acetate; intracellular Ca2+ by FLIPR; agonist/PAM activity not distinguished
Protocol: Ca-Flux Functional Assay: Determination of Agonist/Positive Allosteric Modulator (PAM) Activity GPR43 agonist/PAM activity was determined by measuring changes in intracellular calcium levels using a Ca^2+ sensitive fluorescent dye. The changes in fluorescent signal were monitored by FLIPR (manufactured by Molecular Devices). GPR43 mediated increases in intracellular Ca^2+ concentration were readily detected upon activation with sodium acetate. […]
pEC50: −log10 of the molar value.
quantityName: pEC50

Worked cases, answers included:
molecule	pEC50
Cc1ccc2c(S(=O)(=O)c3ccccc3)c(N)n(C3CCC(F)(F)CC3)c2n1	5.96
Nc1c(S(=O)(=O)N2CCC(c3ccccc3)CC2)c2nccnc2n1C1CCCCC1	6.03
Nc1c(S(=O)(=O)NCCC(F)(F)F)c2nccnc2n1C1CCCCC1	6.09

I: Nc1c(S(=O)(=O)Nc2cccnc2)c2nccnc2n1C1CCCCC1
II: Nc1c(S(=O)(=O)N2CCC(Oc3ccccc3)CC2)c2nccnc2n1C1CCCCC1
III: Nc1c(S(=O)(=O)Nc2ccccc2)c2nccnc2n1C1CCCCC1
IV: COc1ccc(S(=O)(=O)c2c(N)n(C3CCCCC3)c3nccnc23)cc1Cl
Challenge: Task field, ranking: reported pEC50, descending order. Could you list the labels in the order requested?
Response given: IV, III, II, I

A: Nc1c(S(=O)(=O)c2ccccc2)c2nccnc2n1CCC1CC1
B: CN(C1CCCCC1)S(=O)(=O)c1c(N)n(C2CCCCC2)c2nccnc12
Challenge: Lab log: flag the item ( A or B ) with the smaller pEC50 figure. Which one? Tell me its label.
Response given: B
(B: 5.08, A: 5.49)

P: Nc1c(S(=O)(=O)N2CC(Oc3ccccc3)C2)c2nccnc2n1C1CCCCC1
Q: CC(C)Oc1ccc(S(=O)(=O)c2c(N)n(C3CCCCC3)c3nccnc23)cc1
Challenge: Between P and Q , which one shows the larger pEC50 value? Which one? Tell me its label.
Response given: Q
(Q: 6.76, P: 5.81)

* * *

Target: human GPR43 (Homo sapiens)
Sequence (O15552 1-330): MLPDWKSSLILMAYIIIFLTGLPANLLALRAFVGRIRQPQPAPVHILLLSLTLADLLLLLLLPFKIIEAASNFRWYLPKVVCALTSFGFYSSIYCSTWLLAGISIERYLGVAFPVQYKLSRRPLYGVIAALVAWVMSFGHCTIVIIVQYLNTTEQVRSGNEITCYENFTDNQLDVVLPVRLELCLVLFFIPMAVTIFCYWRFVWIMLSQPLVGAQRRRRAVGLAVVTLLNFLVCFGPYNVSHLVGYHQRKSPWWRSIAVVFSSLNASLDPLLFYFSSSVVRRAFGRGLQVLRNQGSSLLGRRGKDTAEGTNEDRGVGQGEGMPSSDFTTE
Assay: Ca-Flux Functional Assay: Determination of Agonist/Positive Allosteric Modulator (PAM) Activity
Conditions: CHO-K1 Gα16 cells stably expressing human GPR43; compound added in the presence of EC20 sodium acetate; intracellular Ca2+ by FLIPR; agonist/PAM activity not distinguished
quantityName: EC50 (nM)

molecule	measuredTarget	quantityName	val
CC1CCN(S(=O)(=O)c2c(N)n(C3CCCCC3)c3nccnc23)C1 (stereo not drawn) [Example 67]	human GPR43 (Homo sapiens)	EC50	830
Nc1c(S(=O)(=O)C2CCCCC2)c2nccnc2n1C1CCCCC1 [Example 12]	human GPR43 (Homo sapiens)	EC50	671
Nc1c(S(=O)(=O)c2ccccc2)c2ncnc(Cl)c2n1C1CCC(F)(F)CC1 [Example 32]	human GPR43 (Homo sapiens)	EC50	689

P: Nc1c(S(=O)(=O)c2ccccc2)c2ccncc2n1C1CCCCC1 [Example 20]
Q: Nc1c(S(=O)(=O)N2CCC(C(F)(F)F)CC2)c2nccnc2n1C1CCCCC1 [Example 87]
R: COc1ccc(S(=O)(=O)c2c(N)n(C3CCC(F)(F)CC3)c3ncccc23)cc1 [Example 14]
S: Cc1ccc(S(=O)(=O)c2c(N)n(C3CCCCC3)c3ncccc23)cc1 [Example 11]
T: Nc1c(S(=O)(=O)c2cccc(F)c2)c2nccnc2n1C1CCCCC1 [Example 110]
Challenge: Task field, ranking: reported EC50, descending order. Could you list the labels in the order requested?
Response given: P, Q, S, T, R
